The measurements presented in this section are drawn from patent US20120238493A1.

Biological target: GLP-1 receptor (UniProt P43220 24-463, limits assumed)
Assay: cell-based or functional assay
Bridges are numbered along the chain shown (N, C = ends). Where no end group is shown, it is not given here. [ ]: non-standard residue; d: D form. Aib = CC(C)(N)C(=O)O
value kind: EC50 (cAMP reporter)
# output: numeric value plus its unit

Before answering, review these 3 worked examples.
binder	EC50 (cAMP reporter)
Y[Aib]QGTFTSDYSIYLDKKAA[Aib]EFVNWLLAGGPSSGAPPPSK-NH2 [mt-402 (SEQ ID NO: 11)]	7 pM
Y[Aib]QGTFTSDYSKYLDEIHQKDFVNWLLAQ-NH2 (not fully specified (residue 20)) [mt-405 (SEQ ID NO: 14)]	2.2 pM
HSQGTFISDYSKYLDEIHQKEFIAWLMNT-NH2 (lactam 16-20; not fully specified (residue 2); also: AIB at position 2 and position 20 (given S and K), any further modification only) [mt-403 (SEQ ID NO: 12)]	2.7 pM

Now look at this entry.
input: # EC50 (cAMP reporter) lookup, item HSQGTFISDYSKALDEIHQKEFIAWLMNT-NH2 (lactam 16-20; not fully specified (residue 2); also: AIB at position 2 and position 20 (given S and K), any further modification only) [mt-404 (SEQ ID NO: 13)]
output: 6 pM
